Tested on: RXF 393 renal
test.method.notes: NCI-60 one-dose screen, 48 h
condition.set: 10 µM unless noted
This is part of a sample that, as a whole, favours compounds with a hit. Of some 83,000 tested, about 20% had one in any assay. The source made the active and inactive calls. The calls were made as follows: active = growth percent below 10; inactive = the rest.
Your reply should match one of these outcome classes. yes for active, no for inactive

A selection of reference data follows.
>  <compound>
O=C(CF)N(O)c1ccc(/C=C/c2ccccc2)cc1

>  <class.assignment>
no

$$$$
>  <compound>
Cc1cc(CCl)c(C)cc1CCl

>  <class.assignment>
no

$$$$
>  <compound>
C[C@]12C[C@H](O)[C@H]3[C@@H](CCC4=CC(=O)CC[C@@]43C)[C@@H]1CC[C@@H]2O

>  <class.assignment>
no

$$$$
>  <compound>
NC(Cc1ccc(O)cc1)C(=O)N/N=C/c1ccc(N(CCCl)CCCl)cc1 (configuration not stated)

>  <class.assignment>
no

$$$$
>  <compound>
C=CC(=O)NC(O)C(Cl)(Cl)Cl (configuration not stated)

>  <class.assignment>
no

$$$$

Problem: Which outcome was entered for the compound CC(N)Cc1ccc(O)cc1 (configuration not stated) in this test?
Result: no

Problem: // repeat for Clc1ccc(SSC(Cl)(Cl)Cl)cc1 and report
Result: no

* * *

Test system: HL-60(TB) leukemia
test.method.notes: NCI-60 one-dose screen, 48 h
condition.set: 10 µM unless noted
Protocol: Growth inhibition of the HL-60(TB) human tumor cell line is measured as a screen for anti-cancer activity. Cells are grown in 96 well plates and exposed to the test compound for 48 hours. Compounds are tested at a single concentration, which is 10^-5 M for most compounds. The reported endpoint is percent growth (GI% or GIPRCNT), where numbers from 0 - 100% represent growth inhibition, and numbers from -100% - 0 represent cell death. For example, a value of 40 represents 60% growth inhibition. […]
Compounds without any hit were thinned out: in the full panel of roughly 83,000, 20% have a hit. Activity calls are given as the source filed them. Rule for the calls: active = growth percent below 10; inactive = the rest.
Your reply should match one of these outcome classes. active, inactive

A selection of reference data follows.
>  <compound>
COc1ccc(-c2nn3c(-c4cc(F)c(Cl)cc4Cl)nnc3s2)cc1

>  <class.assignment>
active

$$$$
>  <compound>
CC(=O)Nc1c(Br)cc2c(c1Br)Cc1cc(Br)ccc1-2

>  <class.assignment>
inactive

$$$$
>  <compound>
Cc1nc(Nc2ccc(NC(=S)Nc3ccccc3)cc2)nc2nc(Nc3ccc(S(=O)(=O)O)cc3)[nH]c(=O)c12

>  <class.assignment>
inactive

$$$$
>  <compound>
C[C@H](NC(=O)[C@@H]1CSSC[C@@H](NC(=O)c2nc3ccccc3cc2O)C(=O)NCC(=O)N1C)c1ccccc1

>  <class.assignment>
active

$$$$

Switching to the query record.
Problem: Which outcome was entered for the compound COc1ccc(C(O)c2cc3c(N)c(C(=O)Nc4cccc(Br)c4)sc3nc2C)cc1 (stereo not given) in this test?
Result: active

* * *

Entries and their growth values follow.
System: HS 578T breast
test.method.notes: NCI-60 one-dose screen, 48 h (100 = growth as untreated, 0 = no growth, -100 = all killed)
condition.set: 10 µM unless noted
Compounds without any hit were thinned out: in the full panel of roughly 83,000, 20% have a hit.
Write down the numeric answer in % and omit the unit.

Some compounds with known growth results, for comparison:
>  <compound>
COc1cc(C2=NN(c3ccccc3)C(c3sc(N(CCCl)CCCl)nc3Cl)C2)cc(OC)c1OC (stereo not given)

>  <growth (%)>
85.8

$$$$
>  <compound>
ClCCN(CCCl)c1nc(Cl)c(C2CC(c3ccc(Cl)cc3)=NN2c2cc(Cl)cc(Cl)c2)s1 (stereo not given)

>  <growth (%)>
89.7

$$$$
>  <compound>
CCOc1c(Cl)cc(CNC(C)C(O)c2ccccc2)cc1OC (stereo not given)

>  <growth (%)>
67.5

$$$$

Problem: Could you tell me which growth is on file for N#CC1c2ccccc2C=CN1C(=O)c1ccc(N(CCCl)CCCl)cc1 (stereo not given) ?
Result: 99.5

Problem: // repeat for OB([O][Hg][c]1ccccc1)[O][Hg][c]1ccccc1 and report
Result: -5.59

Problem: // repeat for CC1=C(SCCC(=O)OCC(=O)NCCC[Te]c2ccccc2)C(=O)c2ccccc2C1=O and report
Result: -16.9

Problem: // repeat for N#Cc1ncc(/N=C/c2ccc(N(CCCl)CCCl)cc2)s1 and report
Result: 90.4
